# subjectOfTest: T1, murine CD19 protein (murine, UniProt P25918 19-287, limits assumed)
# T1 construct: also called mouse CD19-his protein
# T1 sequence (looked up): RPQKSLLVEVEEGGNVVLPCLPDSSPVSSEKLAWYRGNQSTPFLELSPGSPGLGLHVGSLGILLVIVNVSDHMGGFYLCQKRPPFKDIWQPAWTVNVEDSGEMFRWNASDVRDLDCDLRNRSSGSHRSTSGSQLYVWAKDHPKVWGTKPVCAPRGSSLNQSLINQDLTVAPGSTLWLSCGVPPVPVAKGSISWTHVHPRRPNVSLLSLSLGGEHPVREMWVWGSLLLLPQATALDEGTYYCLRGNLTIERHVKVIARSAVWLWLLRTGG
# assayExplanation: ELISA, murine CD19 coated

binder	OD450 at 0.01 nM (OD450)
FMC63-mIgG1 (antibody, V domains shown, Parent murine antibody; also called murine antibody FMC63) VH: EVKLQESGPGLVAPSQSLSVTCTVSGVSLPDYGVSWIRQPPRKGLEWLGVIWGSETTYYNSALKSRLTIIKDNSKSQVFLKMNSLQTDDTAIYYCAKHYYYGGSYAMDYWGQGTSVTVSS VL: DIQMTQTTSSLSASLGDRVTISCRASQDISKYLNWYQQKPDGTVKLLIYHTSRLHSGVPSRFSGSGSGTDYSLTISNLEQEDIATYFCQQGNTLPYTFGGGTKLEITR	0.05
FMC63.27-mIgG1 (antibody, V domains shown, Humanized FMC63; also called FMC63-L2H7) VH: EVTLKESGPVLVKPTETLTLTCTVSGVSLPDYGVSWIRQPPGKALEWLAVIWGSETTYYNSALKSRLTISKDNSKSQVVLTMTNMDPVDTATYYCAKHYYYGGSYAMDYWGQGTTVTVSS VL: DIQMTQSPSSLSASVGDRVTITCRASQDISKYLNWYQQKPGGAVKLLIYHTSRLHSGVPSRFSGSGSGTDYTLTISSLQPEDFATYYCQQGNTLPYTFGGGTKVEIKR	0.06
FMC63.26-mIgG1 (antibody, V domains shown, Humanized FMC63; also called FMC63-L2H6) VH: EVTLKESGPVLVKPTETLTLTCTVSGFSLPDYGVSWIRQPPGKALEWLAVIWGSETTYYNSALKSRLTISKDTSKSQVVLTMTNMDPVDTATYYCAKHYYYGGSYAMDYWGQGTTVTVSS VL: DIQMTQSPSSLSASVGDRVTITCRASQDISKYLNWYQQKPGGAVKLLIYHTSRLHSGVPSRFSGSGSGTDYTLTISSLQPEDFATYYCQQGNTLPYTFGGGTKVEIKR	0.06
FMC63.25-mIgG1 (antibody, V domains shown, Humanized FMC63; also called FMC63-L2H5) VH: EVTLKESGPVLVKPTETLTLTCTVSGFSLSDYGVSWIRQPPGKALEWLAVIWGSETTYYNSALKSRLTISKDTSKSQVVLTMTNMDPVDTATYYCAKHYYYGGSYAMDYWGQGTTVTVSS VL: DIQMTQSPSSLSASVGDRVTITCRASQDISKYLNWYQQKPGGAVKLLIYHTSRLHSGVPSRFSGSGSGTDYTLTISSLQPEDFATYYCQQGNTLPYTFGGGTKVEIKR	0.08
